- assay_system: UniProt:Q9UL54
- Sequence (Q9UL54 whole entry, looked up): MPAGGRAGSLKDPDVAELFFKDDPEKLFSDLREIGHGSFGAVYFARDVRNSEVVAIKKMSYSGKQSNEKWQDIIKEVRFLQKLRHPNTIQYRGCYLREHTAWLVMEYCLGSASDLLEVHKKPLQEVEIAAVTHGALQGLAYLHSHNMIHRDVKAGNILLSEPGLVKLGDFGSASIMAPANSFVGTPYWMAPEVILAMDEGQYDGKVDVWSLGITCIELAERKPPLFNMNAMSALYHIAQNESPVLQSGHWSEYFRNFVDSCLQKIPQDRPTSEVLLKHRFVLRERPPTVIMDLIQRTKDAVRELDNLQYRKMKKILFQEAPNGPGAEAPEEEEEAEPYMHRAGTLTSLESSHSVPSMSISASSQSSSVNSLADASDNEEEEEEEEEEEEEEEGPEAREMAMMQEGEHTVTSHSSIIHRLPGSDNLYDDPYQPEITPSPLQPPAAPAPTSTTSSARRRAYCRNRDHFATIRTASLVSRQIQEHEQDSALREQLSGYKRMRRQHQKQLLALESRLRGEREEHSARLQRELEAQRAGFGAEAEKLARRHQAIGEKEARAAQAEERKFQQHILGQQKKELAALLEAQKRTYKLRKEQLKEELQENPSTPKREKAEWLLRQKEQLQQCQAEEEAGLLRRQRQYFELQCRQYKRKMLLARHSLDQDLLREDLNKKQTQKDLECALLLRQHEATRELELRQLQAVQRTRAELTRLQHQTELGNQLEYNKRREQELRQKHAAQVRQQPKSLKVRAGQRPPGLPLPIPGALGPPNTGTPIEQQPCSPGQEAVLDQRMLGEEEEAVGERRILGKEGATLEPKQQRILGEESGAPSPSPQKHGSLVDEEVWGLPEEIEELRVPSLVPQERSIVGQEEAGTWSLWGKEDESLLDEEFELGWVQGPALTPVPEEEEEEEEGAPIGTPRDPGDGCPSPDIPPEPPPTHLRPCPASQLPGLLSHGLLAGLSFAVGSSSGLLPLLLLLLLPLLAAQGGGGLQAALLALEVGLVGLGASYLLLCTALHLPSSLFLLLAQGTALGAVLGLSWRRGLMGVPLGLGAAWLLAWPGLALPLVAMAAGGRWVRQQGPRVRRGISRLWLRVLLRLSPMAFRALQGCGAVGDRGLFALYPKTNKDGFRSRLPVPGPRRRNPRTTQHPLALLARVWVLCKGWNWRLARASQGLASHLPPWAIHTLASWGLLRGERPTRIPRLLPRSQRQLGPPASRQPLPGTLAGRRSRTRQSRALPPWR
- assay_summary: KINOMEscan competition binding
- settings: compound 10.0 µM
Reported kinase still bound, per cent of control values follow for various compounds
measure: kinase still bound, per cent of control (%)

{"smiles_text": "CNC(=O)Nc1ccc(-c2nc(N3CC4CCC(C3)O4)c3cnn(C4CCC5(CC4)OCCO5)c3n2)cc1", "measure": "kinase still bound, per cent of control", "endpoint_value": 100}
{"smiles_text": "CC(=O)c1c(C)c2cnc(Nc3ccc(N4CCNCC4)cn3)nc2n(C2CCCC2)c1=O", "measure": "kinase still bound, per cent of control", "endpoint_value": 30}
{"smiles_text": "COc1cc2ncnc(Nc3cccc(Cl)c3)c2cc1OC", "measure": "kinase still bound, per cent of control", "endpoint_value": 76}
{"smiles_text": "N#Cc1cc(-c2ccnc(Nc3ccc(-n4cnc(-c5cccnc5)n4)cc3)n2)cc(N2CCOCC2)c1", "measure": "kinase still bound, per cent of control", "endpoint_value": 37}
{"smiles_text": "CCc1nc(-c2cccc(C)c2)c(-c2ccnc(NC(=O)c3ccccc3)c2)s1", "measure": "kinase still bound, per cent of control", "endpoint_value": 86}
